system: KARPAS-45; experiment: selective drug sensitivity score (sDSS, relative to normal bone marrow) (sDSS (score)); higher = more potent and effective on the cell line relative to normal bone marrow cells; conditions: 72 h;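 also: ALL cell lines in 384-well plates, five doses spanning 10,000-fold, each plate scaled between vehicle and 100 µmol/L benzalkonium chloride controls, sDSS an adapted area-under-curve metric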
OBSERVATION_TYPE: selective drug sensitivity score
Please give only the number in your answer, with no unit.

Recorded results for 4 molecules are shown here.
{"columns": ["MOLECULE", "EXPERIMENTAL_SYSTEM", "selective drug sensitivity score"],
 "data": [
  ["CCC/C=C/C=C/C(=O)O[C@H]1/C(=C/C(=O)OC)C[C@H]2C[C@H]([C@@H](C)O)OC(=O)C[C@H](O)C[C@@H]3C[C@H](OC(C)=O)C(C)(C)[C@](O)(C[C@@H]4C/C(=C/C(=O)OC)C[C@H](/C=C/C(C)(C)[C@]1(O)O2)O4)O3 [Bryostatin_1] (top concentration 100 nM)", "KARPAS-45", -7.12],
  ["O=C1Cc2cc(C(=O)NC3C[C@H]4CC[C@@H](C3)N4S(=O)(=O)CC3CCN(CCCC(F)(F)F)CC3)c(Cl)cc2N1 (stereo not given in full) (top concentration 10000 nM)", "KARPAS-45", 0],
  ["Cn1cc(-c2cnn3c(N)c(Br)c([C@@H]4CCCNC4)nc23)cn1 [MK-8776] (top concentration 2500 nM)", "KARPAS-45", 0.34],
  ["O=C(c1ccc(OCCN2CCCCC2)cc1)c1c(-c2ccc(O)cc2)sc2cc(O)ccc12 [Raloxifene] (top concentration 10000 nM)", "KARPAS-45", 3.32]
]}

Could you now consider this next molecule?
Specify measured selective drug sensitivity score for NS(=O)(=O)NCCNc1nonc1/C(=N/O)Nc1ccc(F)c(Br)c1 [Epacadostat] (top concentration 10000 nM) . -0.26

// provenance: the supplement of paper PMC8967900
